Origin of the recorded values: patent US20210060121A1

Below, each of the compounds is paired with its reported Minimum inhibitory concentration (MIC) MRSA SA11 value.
System: MRSA SA11
Assay type: cell-based, Staphylococcus aureus
endpoint: Minimum inhibitory concentration (MIC) MRSA SA11

entry.smiles: CC[C@@H](C)[C@@H](NC(=O)[C@@H](CCC(N)=O)NC(=O)[C@H](CO)NC(=O)[C@@H](NC(=O)[C@@H](Cc1ccccc1)NC)[C@@H](C)CC)C(=O)N[C@H](C(=O)N[C@@H](CO)C(=O)N[C@H]1C(=O)N[C@@H](C)C(=O)N[C@@H](C2CCCCC2)C(=O)N[C@@H]([C@@H](C)CC)C(=O)N[C@H]1C)[C@@H](C)CC
value.measured: 0.5 µg/mL

entry.smiles: CC[C@@H](C)[C@@H](NC(=O)[C@@H](CCC(N)=O)NC(=O)[C@H](CO)NC(=O)[C@@H](NC(=O)[C@@H](Cc1ccccc1)NC)[C@@H](C)CC)C(=O)N[C@H](C(=O)N[C@@H](CO)C(=O)N[C@H]1C(=O)N[C@@H](C)C(=O)N[C@@H](CCSC)C(=O)N[C@@H]([C@@H](C)CC)C(=O)N[C@H]1C)[C@@H](C)CC
value.measured: 1 µg/mL

entry.smiles: CCC[C@@H]1NC(=O)[C@H](C)NC(=O)[C@H](NC(=O)[C@H](CO)NC(=O)[C@@H](NC(=O)[C@H](NC(=O)[C@@H](CCC(N)=O)NC(=O)[C@H](CO)NC(=O)[C@@H](NC(=O)[C@@H](Cc2ccccc2)NC)[C@@H](C)CC)[C@H](C)CC)[C@@H](C)CC)[C@H](C)NC(=O)[C@H]([C@@H](C)CC)NC1=O
value.measured: 1 µg/mL
